- Test system: SF-539
- MEASUREMENT PROTOCOL: NCI tumour cell line growth inhibition, 48 h
The source made the active and inactive calls. Rule as the data show it: active = GI50 up to about 1.1 µM and inactive = higher.
Outcome codes: yes (1) = active, no (0) = inactive

MOLECULE	MEASURED TARGET	DISCRETE LABEL
O=C1NC(=O)C(CCC(=O)c2cccc3ccccc23)C(=O)N1	SF-539	no (0)
NCCCNC1(c2cc3ccccc3s2)CCCCC1	SF-539	no (0)
COc1ccc(C2C(C#N)=C(S)N(C3OC(CO)C(O)C(O)C3O)C(C)=C2C(C)=O)cc1 (configuration not stated)	SF-539	no (0)
O=Cc1ccc(-c2ccc(-c3ccc(CO)s3)o2)s1	SF-539	no (0)
COc1ccc(C2Oc3c(OC)cc(CCCO)cc3C2CO)cc1OC (configuration not stated)	SF-539	no (0)
N=C(N)NS(=O)(=O)c1ccc(Nc2c3ccccc3nc3c(C(=O)NCCO)cccc23)cc1	SF-539	yes (1)
COc1ccc2c(c1)C(=O)C1(C2)[C@H](c2ccccc2)C2C(=O)c3cc(OC)ccc3C2[C@H]1c1ccccc1 (some centres not stated)	SF-539	no (0)
Cn1c(=O)n2n(c1=O)Cc1cccc3cccc(c13)C2	SF-539	no (0)
CN1CCCC(C(=O)OCC(=O)C2(O)CCC3C4CCC5=CC(=O)CCC5(C)C4C(O)CC32C)C1 (configuration not stated)	SF-539	no (0)
CCCCc1ccc(-n2c3nc(=O)n(C)c(=O)c-3nc3ccccc32)cc1	SF-539	no (0)
Clc1ccc2c(NCCNc3ccnc4cc(Cl)ccc34)ccnc2c1	SF-539	no (0)
O=C(NCCNCCCNC(=O)c1cc(-c2ccccc2)nc2ccccc12)c1cccc(OCc2ccccc2)c1OCc1ccccc1	SF-539	no (0)

###

Recorded GI50 for the following compounds
- Tested on: SK-MEL-2
- MEASUREMENT PROTOCOL: NCI tumour cell line growth inhibition, 48 h
Calls of active or inactive are those of the source. Rule as the data show it: active = GI50 up to about 1.1 µM and inactive = higher.
REPORTED PROPERTY: GI50

COMPOUND	MEASURED TARGET	ASSAY RESULT
COc1ccccc1-c1cc(O)c2c(C)cc(C)nc2n1	SK-MEL-2	45.9 µM (inactive)
CN(C)c1ccc(-c2c(C#N)c(O)n(NS(=O)(=O)c3ccccc3)c(=O)c2C#N)cc1	SK-MEL-2	> 100 µM (inactive)
CC(=O)NC1=C(NCC(C)(C)C)C(=O)c2ccccc2C1=O	SK-MEL-2	69 µM (inactive)
CN(C)NC1=NS(=O)(=O)c2cc3c(cc2S1)N(N(C)C)C(=O)c1cc2c(cc1N(N(C)C)C3=O)SC(NN(C)C)=NS2(=O)=O	SK-MEL-2	> 10 µM (inactive)
CCCCCCCCCCCCCCCCOCC(O)CO (centres undefined)	SK-MEL-2	20.6 µM (inactive)
O=C(Cn1cc(Br)c(=O)[nH]c1=O)c1ccc(-c2ccccc2)cc1	SK-MEL-2	> 12.4 µM (inactive)
C=CCC1(C)CCCN(Cc2ccccc2)C1=O (centres undefined)	SK-MEL-2	> 10 µM (inactive)
O=C1CCC(=O)c2ccccc2N1	SK-MEL-2	> 100 µM (inactive)
Cc1cccc2c(N)c3cccc(C(=O)NCC[N+](C)(C)Cc4ccccc4[N+](=O)[O-])c3nc12	SK-MEL-2	25.8 µM (inactive)

###

- System: RPMI-8226
- MEASUREMENT PROTOCOL: NCI tumour cell line growth inhibition, 48 h
Activity calls are given as the source filed them. Rule as the data show it: active = GI50 up to about 1.1 µM and inactive = higher. Non-standard residues stand in square brackets, D forms with d. Residues, ends and D or L forms follow the SMILES beside them. ξ: configuration not given here. *: point of attachment. NMeF = CN[C@@H](Cc1ccccc1)C(=O)O; ξNMeV = CNC(C(=O)O)C(C)C; Boc = CC(C)(C)OC(=O)*; OBn = c1ccc(CO*)cc1
REPORTED PROPERTY: GI50

MOLECULE	REPORTED PROPERTY	ASSAY RESULT
COc1ccc2c(c1)[n+]([O-])c(C(=O)C/C(=N/NC(=O)C[N+](C)(C)C)C(=O)Nc1cccc(C)c1C)c(C)[n+]2[O-]	GI50	> 100 µM (inactive)
Nc1nc(=S)[nH]c2nc3c(c(-c4ccccc4)c12)CCCC3	GI50	> 100 µM (inactive)
CCOC(=O)C1=C(Nc2ccccc2)OC/C1=N\NC(=O)Cc1ccccc1	GI50	> 50 µM (inactive)
CN1C(=O)NC2(O)c3ccccc3C(=O)C12O (stereo not drawn)	GI50	> 100 µM (inactive)
O=C(O)C1C(Br)(c2ccccc2)C1(Br)c1ccccc1 (stereo not drawn)	GI50	11.8 µM (inactive)
CC(=O)OC(C)(C)C[N+](=O)[O-]	GI50	> 100 µM (inactive)
CC(C)C(C(=O)N1CCC[C@@H]1C(=O)OCc1ccccc1)N(C)C(=O)C(C(C)C)N(C)C(=O)[C@H](Cc1ccccc1)N(C)C(=O)[C@H](NC(=O)OC(C)(C)C)C(C)C (stereo partly drawn) (Boc-[dV][NMeF][ξNMeV][ξNMeV][dP]-OBn)	GI50	10.9 µM (inactive)
N#CNC1=NC(CCCC(=O)Nc2cccc([N+](=O)[O-])c2)=C(c2nc3ccccc3[nH]2)C(N)N1 (stereo not drawn)	GI50	> 100 µM (inactive)
C=C(C)CCOC(c1ccccc1)(c1ccccc1)c1ccccc1	GI50	33.9 µM (inactive)
O=Cc1c(Br)[nH]c2ccccc12	GI50	19.3 µM (inactive)
O=C(NCCNCCNC(=O)c1cc(-c2ccccc2)nc2ccccc12)c1cc(-c2ccccc2)nc2ccccc12	GI50	2.73 µM (inactive)
Cc1oc(N)c(S(=O)(=O)c2cc3ccccc3[n+]([O-])c2N)c1C	GI50	> 100 µM (inactive)
O=C(NCCNCCCNC(=O)c1cc(-c2ccccc2)nc2ccccc12)c1cccc(OCc2ccccc2)c1OCc1ccccc1	GI50	2.48 µM (inactive)
COc1ccc2c(c1)C(=O)C1(C2)[C@H](c2ccccc2)C2C(=O)c3cc(OC)ccc3C2[C@H]1c1ccccc1 (stereo partly drawn)	GI50	43.7 µM (inactive)
CC[C@@]1(O)C(=O)OCc2c1cc1n(c2=O)Cc2c-1nc1ccccc1c2/C=N\NC(=O)C(N)=O	GI50	0.61 µM (active)
C#CCn1c(=O)c(I)cn(/C(=C/C(=O)OCC)C(=O)OCC)c1=O	GI50	0.746 µM (active)
Brc1ccc(-c2ccc(-c3ccc(-c4ccc(Br)s4)s3)s2)s1	GI50	> 100 µM (inactive)
Cc1ccc2c(c1)C1(OC(=O)c3ccccc31)c1ccc(F)cc1O2 (stereo not drawn)	GI50	24.2 µM (inactive)
c1ccc(C2C(=P(c3ccccc3)(c3ccccc3)c3ccccc3)P=PC2[P+](c2ccccc2)(c2ccccc2)c2ccccc2)cc1.c1ccc([B-](c2ccccc2)(c2ccccc2)c2ccccc2)cc1 (stereo not drawn)	GI50	0.278 µM (active)
O=C1NC(=O)/C(=C/c2ccc(S(=O)(=O)N/N=C/c3ccccc3)cc2)N1	GI50	> 100 µM (inactive)
C/C(CC1C2CCCC1C2)=N\NC(N)=O (stereo not drawn)	GI50	> 100 µM (inactive)
CC1(C)OC(CCO)CN1C(=O)OCc1ccccc1 (stereo not drawn)	GI50	> 100 µM (inactive)
COC(=O)c1c(O)ccc2[nH]c3c(O)c4ccccc4cc3c12	GI50	17.4 µM (inactive)
CC1Cc2c(N)nc(N3CCOCC3)nc2NC1=O (stereo not drawn)	GI50	> 100 µM (inactive)
CN(C)c1nc2sc3c(c2c(=O)o1)CCCC3	GI50	35.8 µM (inactive)
COC(=O)C12CCC(C(F)(F)C1=O)C2(C)C (stereo not drawn)	GI50	> 100 µM (inactive)
CCN(CC)C(=S)N/N=C(\C)c1cccc(C)n1	GI50	< 0.01 µM (active)
CSc1nc(NC(=O)O)c(N(C(C)=O)C(=O)O)c(=O)n1C	GI50	> 100 µM (inactive)
Cc1c(CNc2ccc(C(=O)NC(CCCNC(=O)c3ccccc3C(=O)O)C(=O)O)cc2)cnc2nc(N)nc(N)c12 (stereo not drawn)	GI50	0.000834 µM (active)
CCCCCCCCCCCCCC(=O)OCC1OC(n2cc(F)c(=O)[nH]c2=O)C(NC(=O)OCc2ccccc2)C(OC(=O)CCCCCCCCCCCCC)C1O (stereo not drawn)	GI50	> 100 µM (inactive)
Cc1ccc(S(=O)(=O)N2CCC3(C(/C=C/c4ccccc4)=Nc4ccccc43)C2c2ccccc2)cc1 (stereo not drawn)	GI50	> 100 µM (inactive)
Fc1ccccc1C1SCc2nc3cc4ccccc4cc3n21 (stereo not drawn)	GI50	> 100 µM (inactive)
CCC(=O)NC(Nc1cc(C)on1)(C(F)(F)F)C(F)(F)F	GI50	> 100 µM (inactive)
O=C(O)C1Cc2c([nH]c3ccccc23)C=N1 (stereo not drawn)	GI50	> 100 µM (inactive)
Cc1ccc2c(c1)/C(=N/Nc1ccccc1[N+](=O)[O-])C(=O)N2	GI50	6.73 µM (inactive)
CCOP(=O)(CCCC(O)CNc1nc(N)nc(Cl)c1/N=N/c1ccc(Cl)cc1)OCC (stereo not drawn)	GI50	2.82 µM (inactive)
O=C1NC2(C=Cc3c(ccc4ccccc34)O2)Oc2ccccc21 (stereo not drawn)	GI50	6.08 µM (inactive)
COc1ccc(NC(=O)CC(=O)n2nc(C)c(/N=N/c3ccccc3C(=O)O)c2C)cc1	GI50	> 100 µM (inactive)
